The reader will find reported IC50 values listed item by item below.
Tested on: MG-63;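 further: growth inhibition of human MG-63 cells, read out with a cell viability assay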
ASSAY: cells
Format: functional, cell-based, Homo sapiens
TEST PARAMETERS: Homo sapiens, MG-63
Description: SANGER: Inhibition of human MG-63 cell growth in a cell viability assay.
# output: bare number, implied unit µM

LINE NOTATION	SYSTEM TESTED	DATA VALUE
Cc1cc([N+](=O)[O-])ccc1NS(=O)(=O)c1cc(Cl)ccc1Cl	MG-63	5.96
CN(C)C(=N)NC(=N)N	MG-63	14000
C=C(c1ccc(C(=O)O)cc1)c1cc2c(cc1C)C(C)(C)CCC2(C)C	MG-63	0.789

Now consider the entry below.
Can you look up the measured IC50 of CO[C@H]1C[C@@H]2CC[C@@H](C)[C@@](O)(O2)C(=O)C(=O)N2CCCC[C@H]2C(=O)O[C@H]([C@H](C)C[C@@H]2CC[C@@H](OC(=O)C(C)(CO)CO)[C@H](OC)C2)CC(=O)[C@H](C)/C=C(\C)[C@@H](O)[C@@H](OC)C(=O)[C@H](C)C[C@H](C)/C=C/C=C/C=C/1C for me?
0.134

---

The reader will find reported IC50 values listed item by item below.
Test system: C32;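 further: cell viability assay, with IC50 reflecting inhibition of C32 cell growth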
ASSAY: cells
Assay type: functional, cell-based, Homo sapiens
TEST PARAMETERS: Homo sapiens, C32
Description: SANGER: Inhibition of human C32 cell growth in a cell viability assay.

Please review the following examples before continuing.
COMPOUND	IC50
CC1(C)CNc2cc(NC(=O)c3cccnc3NCc3ccncc3)ccc21 [MOTESANIB]	> 2 µM
Cc1cc([N+](=O)[O-])ccc1NS(=O)(=O)c1cc(Cl)ccc1Cl	< 0.125 µM
CC(C)CCN1c2nc(Nc3cc(F)c(O)c(F)c3)ncc2N(C)C(=O)C1C (centres undefined)	3.97 µM

Can you look up the measured IC50 of C=C(c1ccc(C(=O)O)cc1)c1cc2c(cc1C)C(C)(C)CCC2(C)C [BEXAROTENE] for me?
> 8 µM

Would you mind doing COc1cccc2c1C(=O)c1c(O)c3c(c(O)c1C2=O)C[C@@](O)(C(=O)CO)C[C@@H]3O[C@H]1C[C@H](N)[C@H](O)[C@H](C)O1 [DOXORUBICIN] as well?
> 1.02 µM

---

System: SW 962;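 further: growth inhibition of human SW962 cells, read out by a cell viability assay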
ASSAY: cells
Type: functional, cell-based, Homo sapiens
TEST PARAMETERS: sw 962
Description: SANGER: Inhibition of human SW962 cell growth in a cell viability assay.
ENDPOINT: IC50 (µM)
# output: bare number, implied unit µM

Can you look up the measured IC50 of CISPLATIN for me?
64.6

---

Test system: YKG-1;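 further: cell growth inhibition, read out with a viability assay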
ASSAY: cells
Assay type: functional, cell-based, Homo sapiens
TEST PARAMETERS: Homo sapiens, YKG-1
Description: SANGER: Inhibition of human YKG-1 cell growth in a cell viability assay.
ENDPOINT: IC50

Can you look up the measured IC50 of CS(=O)(=O)c1ccc(C(=O)Nc2ccc(Cl)c(-c3ccccn3)c2)c(Cl)c1 [VISMODEGIB] for me?
> 10 µM

Would you mind doing N#Cc1c(O)c2c(-c3ccc(-c4ccccc4O)cc3)csc2[nH]c1=O as well?
> 1.02 µM

Would you mind doing CCC/C=C/C=C/C(=O)O[C@H]1/C(=C/C(=O)OC)C[C@H]2C[C@H]([C@@H](C)O)OC(=O)C[C@H](O)C[C@@H]3C[C@H](OC(C)=O)C(C)(C)[C@](O)(C[C@@H]4C/C(=C/C(=O)OC)C[C@H](/C=C/C(C)(C)[C@]1(O)O2)O4)O3 [BRYOSTATIN 1] as well?
0.00413 µM

Would you mind doing C=C(c1ccc(C(=O)O)cc1)c1cc2c(cc1C)C(C)(C)CCC2(C)C [BEXAROTENE] as well?
> 8 µM

Would you mind doing Oc1ccc2ccccc2c1SSc1c(O)ccc2ccccc12 as well?
> 32 µM

Source: ChEMBL document CHEMBL1201861
